test system: replicon cells (1b-Con1); experiment: Replicon activity assay (replicon RNA level by real-time RT-PCR, Taqman); type: cell-based; conditions: Hepatitis C virus, HCV replicon genotype 1b; read-out: EC50 (1b) Range
Quantity: EC50

// solved cases for EC50 follow
Tested on replicon cells (1b-Con1): CC(C)OC(=O)[C@H](C)CCOP1(=O)OC[C@@]2(F)O[C@@H](n3ccc(=O)[nH]c3=O)[C@](C)(O)[C@@H]2O1 (stereo partly drawn) [Compound 86A] . Observed EC50: 1 to 10 µM

The compound CC(C)OC(=O)C[C@H](F)CO[P@@]1(=O)OC[C@H]2O[C@@H](n3ccc(=O)[nH]c3=O)[C@](C)(N)[C@@H]2O1 [Compound 65A] , tested on replicon cells (1b-Con1), showed EC50 of > 10 µM

Continuing:
# EC50 measured on replicon cells (1b-Con1) for item COC(=O)N[C@@H](CCO[P@]1(=O)OC[C@H]2O[C@@H](n3ccc(=O)[nH]c3=O)[C@](C)(N)[C@@H]2O1)C(=O)OC(C)C [Compound 42B] = > 10 µM

====

Tested on: replicon cells (1b-Con1)
Experiment: Replicon activity assay (replicon RNA level by real-time RT-PCR, Taqman)
Type: cell-based
Conditions: Hepatitis C virus, HCV replicon genotype 1b; read-out: EC50 (1b) Range
Protocol: To measure cell-based anti-HCV activity of the compounds of the present invention, replicon cells (1b-Con1) are seeded at 5000 cells/well in 96-well plates one day prior to treatment with a compound of the invention. […] Cells are harvested three days post-dosing, and the replicon RNA level is determined using real-time RT-PCR (Taqman assay) with GAPDH RNA as endogenous control. EC50 values are calculated from experiments with 10 serial twofold dilutions of the inhibitor in triplicate. […]
pEC50: −log10 of the molar value.
Assign pEC50 to each entry below.

Per the record, CC(C)OC(=O)C(CCO[P@@]1(=O)OC[C@H]2O[C@@H](n3ccc(=O)[nH]c3=O)[C@](C)(N)[C@@H]2O1)c1ccccc1 (stereo partly drawn) [Compound 33A] has pEC50 of < 5.00

Please give pEC50 for each item listed below.
1. CC(C)OC(=O)CC(F)(F)CO[P@@]1(=O)OC[C@H]2O[C@@H](n3ccc(=O)[nH]c3=O)[C@](C)(N)[C@@H]2O1 [Compound 49A]
2. CC(=O)O[C@@H](CO[P@@]1(=O)OC[C@H]2O[C@@H](n3ccc(=O)[nH]c3=O)[C@](C)(N)[C@@H]2O1)[C@@H](OC(C)=O)C(=O)OC(C)C [Compound 54A]

1: < 5.00; 2: < 5.00

// input: 3 compounds below; output: pEC50 for each
1. CC(=O)O[C@H](CO[P@@]1(=O)OC[C@H]2O[C@@H](n3ccc(=O)[nH]c3=O)[C@](C)(N)[C@@H]2O1)CC(=O)OC(C)C [Compound 52A]
2. CC(C)OC(=O)C[C@@H](F)CO[P@@]1(=O)OC[C@H]2O[C@@H](n3ccc(=O)[nH]c3=O)[C@](C)(N)[C@@H]2O1 [Compound 67A]
3. C#C[C@]1(C)[C@@H]2OP(=O)(OCCC(C)C(=O)OC3CCCC3)OC[C@H]2O[C@H]1n1ccc(=O)[nH]c1=O (single isomer, unassigned) [Compound 2B]

["< 5.00", "< 5.00", "≥ 6.60"]

====

assay: Cytotoxicity MTS assay (CellTiter 96 Aqueous One Solution) in replicon cells; type: cell-based; conditions: HCV replicon cells (1b-Con1); EDU; read-out: CC50 (EDU) Range
For each entry below, report its CC50 at 3 days value.

For orientation, consider the following solved cases.
molecule C#C[C@]1(C)[C@@H]2OP(=O)(OCCC(C)C(=O)OC3CCCC3)OC[C@H]2O[C@H]1n1ccc(=O)[nH]c1=O (single isomer, unassigned) [Compound 2B] , CC50 at 3 days observed: > 50 µM

Data point: C[C@@]1(N)[C@@H]2O[P@](=O)(OCCC3CCOC3=O)OC[C@H]2O[C@H]1n1ccc(=O)[nH]c1=O (stereo partly drawn) [Compound 46B] ; CC50 at 3 days = > 50 µM

Record CC(C)OC(=O)CS(=O)(=O)CCO[P@@]1(=O)OC[C@H]2O[C@@H](n3ccc(=O)[nH]c3=O)[C@](C)(N)[C@@H]2O1 [Compound 58A] , field CC50 at 3 days: < 50 µM

Record CC(C)OC(=O)C(C)CCOP1(=O)OC[C@H]2O[C@@H](n3ccc(=O)[nH]c3=O)[C@](C)(Cl)[C@@H]2O1 (stereo partly drawn) [Compound 39A] . Reported CC50 at 3 days: > 50 µM

In plain terms, C#C[C@]1(C)[C@@H]2O[P@](=O)(OCC(C)CCC(=O)OC(C)C)OC[C@H]2O[C@H]1n1ccc(=O)[nH]c1=O (stereo partly drawn) [Compound 22B] has a documented CC50 at 3 days of > 50 µM

Parameters: items (list). Returns: CC50 at 3 days for each item.
1. C#C[C@]1(C)[C@@H]2O[P@](=O)(OC[C@@H](CC(=O)OC(C)C)OC)OC[C@H]2O[C@H]1n1ccc(=O)[nH]c1=O [Compound 62B]
2. C#C[C@]1(C)[C@@H]2O[P@@](=O)(OC[C@H](CC(=O)OC(C)C)OC)OC[C@H]2O[C@H]1n1ccc(=O)[nH]c1=O [Compound 60A]
3. CC(C)OC(=O)C1(CCO[P@]2(=O)OC[C@H]3O[C@@H](n4ccc(=O)[nH]c4=O)[C@](C)(N)[C@@H]3O2)CC1 [Compound 27B]

1: > 50 µM; 2: > 50 µM; 3: > 50 µM

// each molecule listed below needs its CC50 at 3 days
1. C#C[C@@]1(O)[C@@H]2OP(=O)(OCC[C@H](C)C(=O)OC(C)C)OC[C@H]2O[C@H]1n1ccc(=O)[nH]c1=O (single isomer, unassigned)
2. C#C[C@]1(C)[C@@H]2O[P@@](=O)(OCCC(C(=O)OC(C)C)C(C)C)OC[C@H]2O[C@H]1n1ccc(=O)[nH]c1=O (stereo partly drawn) [Compound 32A]
3. CC(C)OC(=O)C(CCO[P@@]1(=O)OC[C@H]2O[C@@H](n3cnc4c(N)ncnc43)[C@](C)(Cl)[C@@H]2O1)C(=O)OC(C)C [Compound 70A]
4. C#C[C@]1(C)[C@@H]2O[P@@](=O)(OCC(CC(=O)OC(C)C)N(C)C(=O)OC(C)(C)C)OC[C@H]2O[C@H]1n1ccc(=O)[nH]c1=O (stereo partly drawn)

1. > 50 µM
2. > 50 µM
3. > 50 µM
4. > 50 µM

====

test system: replicon cells (1b-Con1); test: Replicon activity assay (replicon RNA level by real-time RT-PCR, Taqman); type: cell-based; conditions: Hepatitis C virus, HCV replicon genotype 1b; read-out: EC50 (1b) Range
Quantity: EC50

Observed EC50 on replicon cells (1b-Con1), entry C#C[C@@]1(O)[C@@H]2OP(=O)(OCC[C@@H](OC)C(=O)OC(C)C)OC[C@H]2O[C@H]1n1ccc(=O)[nH]c1=O (stereo partly shown) , equals ≤ 250 nM

Assay replicon cells (1b-Con1), sample C[C@@]1(N)[C@@H]2O[P@](=O)(OCCC3CCOC3=O)OC[C@H]2O[C@H]1n1ccc(=O)[nH]c1=O (stereo partly shown) [Compound 46B] , EC50 read: > 10000 nM

Item C[C@@]1(N)[C@@H]2O[P@@](=O)(OCCC3(C(=O)OC4CCCC4)CC3)OC[C@H]2O[C@H]1n1ccc(=O)[nH]c1=O [Compound 26A] ; assay system replicon cells (1b-Con1); EC50 reported as > 10000 nM

replicon cells (1b-Con1) data for C#C[C@]1(C)[C@@H]2O[P@](=O)(OCC[C@H](OC)C(=O)OC(C)C)OC[C@H]2O[C@H]1n1ccc(=O)[nH]c1=O [Compound 56B] ; its EC50: 250 to 1000 nM

# value of EC50, replicon cells (1b-Con1), item CC(C)OC(=O)[C@H](C)CCOP1(=O)OC[C@@]2(F)O[C@@H](n3ccc(=O)[nH]c3=O)[C@](C)(F)[C@@H]2O1 (stereo partly shown) [Compound 87A] = ≤ 250 nM

Value sought: EC50, system replicon cells (1b-Con1), item CO[C@H](CO[P@]1(=O)OC[C@H]2O[C@@H](n3ccc(=O)[nH]c3=O)[C@](C)(N)[C@@H]2O1)[C@@H](OC)C(=O)OC(C)C [Compound 48B] . Result: > 10000 nM

Count: 2. Required value per item: EC50.
1. CC(C)OC(=O)[C@@H](C)CCO[P@@]1(=O)OC[C@H]2O[C@@H](n3ccc4c(N)ncnc43)[C@](C)(Cl)[C@@H]2O1 [Compound 80A]
2. C#C[C@]1(C)[C@@H]2O[P@](=O)(OCCC(C(=O)OC(C)C)C(C)C)OC[C@H]2O[C@H]1n1ccc(=O)[nH]c1=O (stereo partly shown) [Compound 32B]

> 10000 nM
> 10000 nM

All values here come from patent US20200179428A1.
